variants and their reported self-cleavage
B1: HDV Ribozyme (parent)
chain: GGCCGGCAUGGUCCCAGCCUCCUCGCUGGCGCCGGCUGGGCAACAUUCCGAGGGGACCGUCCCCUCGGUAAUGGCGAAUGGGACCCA

Variants of: B1
Test: self-cleavage, relative activity (ratio to wild type); higher = more cleavage; co-transcriptional
Quantity kind: self-cleavage

>>> df
    mutant_id  quantity_kind  readout_number
 0  G10C G40U  self-cleavage           0.776
 1  G53A G80C  self-cleavage           0.351
 2  C21G C36G  self-cleavage               0
 3   C4A G68U  self-cleavage           0.453
 4   U9A G52U  self-cleavage           0.858
 5  C26G C84A  self-cleavage            1.09
 6  C49A C64A  self-cleavage           0.284
 7  C18U A87G  self-cleavage           0.733
 8  C30A G80A  self-cleavage           0.105
 9   G2U G50A  self-cleavage           0.047
10   G1C G11C  self-cleavage           0.131
11  G35C C63G  self-cleavage          0.0449
12  G54U C75G  self-cleavage           0.114
13  U23G C85U  self-cleavage           0.898
14   C3U U23A  self-cleavage             0.9
15  U27A U60G  self-cleavage            0.59
16  U12G C33U  self-cleavage           0.277
17  G53A G55C  self-cleavage           0.912
18  G10A C18G  self-cleavage          0.0817
19   G5A C30G  self-cleavage          0.0426
20   A8C C58U  self-cleavage           0.831
21  C33U G54U  self-cleavage           0.901

Recorded values, source the RNAGym collection of RNA variant scans (doi:10.7554/elife.80360).
